Values from paper PMC10776578

Documented Kd across a set of binders
Test target: T1, His-TRAF6_(310-522) (human, UniProt Q9Y4K3 310-522)
T1 construct: also called His-T6; recombinant TRAF6 wild-type; source: E. coli BL21 Codon Plus RIPL, purified (Ni-NTA)
T1 sequence: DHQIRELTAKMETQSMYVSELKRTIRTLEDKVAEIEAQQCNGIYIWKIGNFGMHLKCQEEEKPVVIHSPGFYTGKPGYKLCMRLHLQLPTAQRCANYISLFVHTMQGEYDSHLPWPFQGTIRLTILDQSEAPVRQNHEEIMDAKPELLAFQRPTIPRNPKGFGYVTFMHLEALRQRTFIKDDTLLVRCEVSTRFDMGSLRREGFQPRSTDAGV
Assay explanation: AlphaScreen or HTRF; AlphaScreen PPI assay: His-TRAF and GST-LMP1, GST-CD40 or GST-RANK in PBS with 0.5% BSA and 0.1% Tween-20, 1 h at RT; standard 300 nM His-TRAF and 100 nM GST protein if not indicated otherwise; for KD His-TRAF6 at different concentrations, fit one site-specific binding with hill slope
Experimental setup: both partners purified
Write the answer as a number in nM, unit excluded.

[[record]]
binder = "GST-CD40_(216-277) (domain or fragment, source: E. coli DH5α or BL21 Codon Plus RIPL, purified (glutathione Sepharose 4B)) KKVAKKPTNKAPHPKQEPQEINFPDDLPGSNTAAPVQETLHGCQPVTQEDGKESRISVQERQ"
readout_units = "nM"
recorded_result = 17.1

[[record]]
binder = "GST-LMP1_(181-386) (domain or fragment, also called LMP1 wild-type; LMP1 signalling domain; source: E. coli DH5α or BL21 Codon Plus RIPL, purified (glutathione Sepharose 4B)) LIWMYYHGQRHSDEHHHDDSLPHPQQATDDSGHESDSNSNEGRHHLLVSGAGDGPPLCSQNLGAPGGGPDNGPQDPDNTDDNGPQDPDNTDDNGPHDPLPQDPDNTDDNGPQDPDNTDDNGPHDPLPHSPSDSAGNDGGPPQLTEEVENKGGDQGPPLMTDGGGGHSHDSGHGGGDPHLPTLLLGSSGSGGDDDDPHGPVQLSYYD"
readout_units = "nM"
recorded_result = 73.2

[[record]]
binder = "GGGPYAQGEDARMLSLVSKTEIEEDSFRQMPTEDEYMDRPSQ (domain or fragment, also called TRANCE receptor; source: E. coli DH5α or BL21 Codon Plus RIPL, purified (glutathione Sepharose 4B)) [GST-RANK_(314-355)]"
readout_units = "nM"
recorded_result = 7.7


Okay, now this binder:
// query For the binder GST-LMP1_(181-386) Q381E (domain or fragment, also called LMP1 Q381E; source: E. coli DH5α or BL21 Codon Plus RIPL, purified (glutathione Sepharose 4B)) LIWMYYHGQRHSDEHHHDDSLPHPQQATDDSGHESDSNSNEGRHHLLVSGAGDGPPLCSQNLGAPGGGPDNGPQDPDNTDDNGPQDPDNTDDNGPHDPLPQDPDNTDDNGPQDPDNTDDNGPHDPLPHSPSDSAGNDGGPPQLTEEVENKGGDQGPPLMTDGGGGHSHDSGHGGGDPHLPTLLLGSSGSGGDDDDPHGPVELSYYD , what Kd is on record?
// result 14.7
